Assayed System: Serine/threonine-protein kinase PAK 4 (Homo sapiens); further: in the data inactive means no Kd found up to 30 µM
Sequence (O96013 whole entry): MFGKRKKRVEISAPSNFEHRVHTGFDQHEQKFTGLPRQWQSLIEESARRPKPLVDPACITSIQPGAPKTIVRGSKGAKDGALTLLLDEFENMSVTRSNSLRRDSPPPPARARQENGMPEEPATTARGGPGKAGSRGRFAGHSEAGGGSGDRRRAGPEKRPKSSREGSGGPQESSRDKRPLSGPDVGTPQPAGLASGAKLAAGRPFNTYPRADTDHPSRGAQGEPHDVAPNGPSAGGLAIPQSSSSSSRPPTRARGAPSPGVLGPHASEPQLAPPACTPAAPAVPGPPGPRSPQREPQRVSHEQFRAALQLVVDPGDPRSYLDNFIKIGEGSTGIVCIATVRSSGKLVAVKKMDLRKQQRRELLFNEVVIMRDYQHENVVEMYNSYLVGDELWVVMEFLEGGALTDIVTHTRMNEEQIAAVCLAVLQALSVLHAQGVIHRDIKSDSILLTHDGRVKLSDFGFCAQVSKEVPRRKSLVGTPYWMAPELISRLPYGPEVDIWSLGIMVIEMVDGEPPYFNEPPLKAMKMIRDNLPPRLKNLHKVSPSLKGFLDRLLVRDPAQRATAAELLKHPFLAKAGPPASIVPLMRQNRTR
Active and inactive are the calls of the source.
// one of active, inactive, no free text

Please indicate how the test categorized COc1ccc(-c2ccc3ncc4c(c3c2)n(-c2ccc(N3CCNCC3)c(C(F)(F)F)c2)c(=O)n4C)cn1 [BGT-226 FREE BASE] .
inactive

Please indicate how the test categorized `CNC(=O)c1cccc(-c2ccc3c(N4CCOC[C@@H]4C)nc(N4CCOC[C@@H]4C)nc3n2)c1` .
inactive

Please indicate how the test categorized `C=CCN(/C=C1/C(=O)O[C@H](COC)[C@@]2(C)C1=C(O)C(=O)C1=C2[C@H](OC(C)=O)C[C@]2(C)C(=O)CC[C@@H]12)CC=C` .
inactive

Please indicate how the test categorized `O=S(=O)(c1cccc2cnccc12)N1CCCNCC1` .
inactive

Please indicate how the test categorized `CNC(=O)c1cc(COc2nnc(Nc3ccc(Cl)cc3)c3ccoc23)ccn1` .
inactive

Please indicate how the test categorized `COCCN1CCN(Cc2ccc(-c3n[nH]c4c3C(=O)c3c(NC(=O)NN5CCOCC5)cccc3-4)cc2)CC1` .
inactive

Please indicate how the test categorized `Cc1cc(C(=O)Nc2cc(Oc3ccc4nc(NC(=O)C5CC5)cn4n3)ccc2C)n(C)n1` .
inactive

Please indicate how the test categorized `C=CC(=O)Nc1cc(Nc2nccc(-c3cn(C)c4ccccc34)n2)c(OC)cc1N(C)CCN(C)C` .
inactive

Please indicate how the test categorized `O=C(NOC[C@H](O)CO)c1ccc(F)c(F)c1Nc1ccc(I)cc1F` .
inactive

Please indicate how the test categorized `C[C@@H]1COC(Nc2ccc3ncnc(Nc4ccc(OCc5nccs5)c(Cl)c4)c3c2)=N1` .
inactive

Further cases:
Please indicate how the test categorized `Cc1c(Cn2c(C)nc3c(C(=O)O)cc(N4CCOCC4)cc32)cccc1C(F)(F)F` .
inactive

Please indicate how the test categorized `CN1CCN(c2nc(C3=C(c4c[nH]c5ccccc45)C(=O)NC3=O)c3ccccc3n2)CC1` .
inactive

Please indicate how the test categorized `COc1ccc2c(OCc3nnc4ccc(-c5ccccc5)nn34)ccnc2c1` .
inactive

Please indicate how the test categorized `NC(=O)c1ccc(N(C(N)=O)c2c(F)cccc2F)nc1-c1ccc(F)cc1F` .
inactive

Please indicate how the test categorized `CNC(=O)c1ccc(Nc2ncc(C(F)(F)F)c(NCc3nccnc3N(C)S(C)(=O)=O)n2)cc1` .
active

Please indicate how the test categorized `CCOc1ccn(-c2ccc(F)cc2)c(=O)c1C(=O)Nc1ccc(Oc2ccnc(N)c2Cl)c(F)c1` .
inactive

====

Assayed System: Receptor-type tyrosine-protein kinase FLT3 (Homo sapiens); further: in the data inactive means no Kd found up to 30 µM
Sequence (P36888 whole entry): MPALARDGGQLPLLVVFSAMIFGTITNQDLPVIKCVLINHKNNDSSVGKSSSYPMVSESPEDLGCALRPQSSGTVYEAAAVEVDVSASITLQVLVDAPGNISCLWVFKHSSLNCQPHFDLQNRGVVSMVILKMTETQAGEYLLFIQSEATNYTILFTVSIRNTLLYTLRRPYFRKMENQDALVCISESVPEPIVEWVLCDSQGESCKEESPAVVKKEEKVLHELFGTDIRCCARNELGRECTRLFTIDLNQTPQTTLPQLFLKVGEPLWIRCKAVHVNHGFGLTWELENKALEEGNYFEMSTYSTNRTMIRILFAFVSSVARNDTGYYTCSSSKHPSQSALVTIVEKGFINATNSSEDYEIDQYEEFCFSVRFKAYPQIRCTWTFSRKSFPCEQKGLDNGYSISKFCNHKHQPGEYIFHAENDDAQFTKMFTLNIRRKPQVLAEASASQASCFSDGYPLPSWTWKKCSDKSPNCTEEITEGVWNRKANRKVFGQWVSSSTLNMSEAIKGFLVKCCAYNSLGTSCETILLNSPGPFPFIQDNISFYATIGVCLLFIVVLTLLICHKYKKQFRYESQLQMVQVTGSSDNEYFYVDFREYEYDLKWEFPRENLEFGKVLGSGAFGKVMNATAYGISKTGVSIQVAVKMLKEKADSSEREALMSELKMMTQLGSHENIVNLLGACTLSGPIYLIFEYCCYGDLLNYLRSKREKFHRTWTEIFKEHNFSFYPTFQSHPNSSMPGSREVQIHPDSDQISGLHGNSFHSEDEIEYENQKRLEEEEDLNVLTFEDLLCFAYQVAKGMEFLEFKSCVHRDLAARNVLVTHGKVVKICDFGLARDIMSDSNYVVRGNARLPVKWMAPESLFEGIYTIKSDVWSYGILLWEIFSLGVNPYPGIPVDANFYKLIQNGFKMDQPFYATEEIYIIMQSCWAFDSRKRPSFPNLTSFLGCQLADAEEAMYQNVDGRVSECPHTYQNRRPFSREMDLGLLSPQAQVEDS
Activity calls are given as the source filed them.
// one of true (1) = active, false (0) = inactive, no free text

Please indicate how the test categorized `COc1cccc2cc(-c3nc([C@H]4CC[C@H](C(=O)O)CC4)n4ncnc(N)c34)[nH]c12` .
false (0)

Please indicate how the test categorized `O[C@H]1CC[C@H](Nc2ncc3nc(Nc4c(F)cc(F)cc4F)n([C@H]4CCOC4)c3n2)CC1` .
false (0)

Please indicate how the test categorized `Cn1cc(-c2[nH]c3cc(NC(=O)[C@H](N)C4CCCCC4)cc4c3c2C=NNC4=O)cn1` .
true (1)

====

Assayed System: Dual specificity mitogen-activated protein kinase kinase 4 (Homo sapiens, UniProt P45985); further: in the data inactive means no Kd found up to 30 µM
Sequence (P45985 whole entry): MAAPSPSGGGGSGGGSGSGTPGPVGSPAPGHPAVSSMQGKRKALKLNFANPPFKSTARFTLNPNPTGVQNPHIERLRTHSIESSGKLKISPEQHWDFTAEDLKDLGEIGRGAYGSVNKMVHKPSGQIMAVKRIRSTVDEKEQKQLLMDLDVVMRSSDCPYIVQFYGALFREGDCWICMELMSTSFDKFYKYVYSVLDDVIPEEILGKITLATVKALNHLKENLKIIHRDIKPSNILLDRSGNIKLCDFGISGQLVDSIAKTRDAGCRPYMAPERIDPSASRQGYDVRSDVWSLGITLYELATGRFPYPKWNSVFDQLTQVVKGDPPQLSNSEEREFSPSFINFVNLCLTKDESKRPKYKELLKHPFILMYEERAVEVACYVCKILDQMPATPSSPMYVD
Active and inactive are the calls of the source.
Recorded Kd, one value per entry.

// solved cases for Kd follow
`COc1cc(Nc2ncc(F)c(Nc3ccc4c(n3)N(COP(=O)(O)O)C(=O)C(C)(C)O4)n2)cc(OC)c1OC` on Dual specificity mitogen-activated protein kinase kinase 4 (Homo sapiens, UniProt P45985) gives Kd = > 30 µM (inactive)

`O=C(NOC[C@H](O)CO)c1ccc(F)c(F)c1Nc1ccc(I)cc1F` on Dual specificity mitogen-activated protein kinase kinase 4 (Homo sapiens, UniProt P45985) gives Kd = > 30 µM (inactive)

Next item in the queue.
`O=C(NC[C@H](O)CO)c1ccncc1Nc1ccc(I)cc1F` on Dual specificity mitogen-activated protein kinase kinase 4 (Homo sapiens, UniProt P45985) gives Kd = > 30 µM (inactive)
